Listed here are compounds together with their documented HR (heart rate).
system: spontaneous hypertensive rats (MHS); assay: systolic blood pressure and heart rate in hypertensive MHS rats (indirect tail-cuff); type: in vivo, rat (MHS); details: 20 mg/Kg/os daily for ten days in Methocel 0.5% w/v, 7 MHS rats; controls 384 +/- 11.0
reported_endpoint: HR (heart rate)

[[record]]
compound = "C[C@]12CC[C@H](OCC[N+](C)(C)C)C[C@H]1CC[C@@H]1[C@@H]2CC[C@]2(C)[C@@H](C3=CC(=O)OC3)CC[C@]12O [Comp. I-c]"
result = "375 +/- 9.0 beats/min."

[[record]]
compound = "C[C@]12CC[C@H](SCCCN)C[C@H]1CC[C@@H]1[C@@H]2CC[C@]2(C)[C@@H]([C@H]3COC(=O)C3)CC[C@]12O [Comp. I-l]"
result = "390 +/- 10.0 beats/min."

[[record]]
compound = "CN(C)CCOCCO[C@H]1CC[C@@]2(C)[C@H](CC[C@@H]3[C@@H]2CC[C@]2(C)[C@@H](C4=CC(=O)OC4)CC[C@]32O)C1 [Comp. I-e]"
result = "395 +/- 10.0 beats/min."

[[record]]
compound = "C[C@]12CC[C@H](SCC(O)CN)C[C@H]1CC[C@@H]1[C@@H]2CC[C@]2(C)[C@@H](C3=CC(=O)OC3)CC[C@]12O (some centres unmarked) [Comp. I-u]"
result = "377 +/- 9.0 beats/min."

[[record]]
compound = "C[C@]12CC[C@H](SCC3CO3)C[C@H]1CC[C@@H]1[C@@H]2CC[C@]2(C)[C@@H](C3=CC(=O)OC3)CC[C@]12O (some centres unmarked) [Comp. I-h]"
result = "382 +/- 6.8 beats/min."

[[record]]
compound = "C[C@]12CC[C@H](OCCC(=N)N)C[C@H]1CC[C@@H]1[C@@H]2CC[C@]2(C)[C@@H](C3=CC(=O)OC3)CC[C@]12O [Comp. I-f]"
result = "378 +/- 8.5 beats/min."

[[record]]
compound = "C[C@]12CC[C@H](SCC[N+](C)(C)C)C[C@H]1CC[C@@H]1[C@@H]2CC[C@]2(C)[C@@H](C3=CC(=O)OC3)CC[C@]12O [Comp. I-p]"
result = "378 +/- 9.3 beats/min."

[[record]]
compound = "C[C@]12CC[C@H](O)C[C@H]1CC[C@@H]1[C@@H]2CC[C@]2(C)[C@@H](C3=CC(=O)OC3)CC[C@]12O [DIGI, digitoxigenin]"
result = "380 +/- 10.0 beats/min."

